// data source = patent US11673889B2

Molecular target: human soluble ENPP1 (Homo sapiens)
Construct: 20 ng of human soluble ENPP1
Sequence (P22413 103-925 limits assumed): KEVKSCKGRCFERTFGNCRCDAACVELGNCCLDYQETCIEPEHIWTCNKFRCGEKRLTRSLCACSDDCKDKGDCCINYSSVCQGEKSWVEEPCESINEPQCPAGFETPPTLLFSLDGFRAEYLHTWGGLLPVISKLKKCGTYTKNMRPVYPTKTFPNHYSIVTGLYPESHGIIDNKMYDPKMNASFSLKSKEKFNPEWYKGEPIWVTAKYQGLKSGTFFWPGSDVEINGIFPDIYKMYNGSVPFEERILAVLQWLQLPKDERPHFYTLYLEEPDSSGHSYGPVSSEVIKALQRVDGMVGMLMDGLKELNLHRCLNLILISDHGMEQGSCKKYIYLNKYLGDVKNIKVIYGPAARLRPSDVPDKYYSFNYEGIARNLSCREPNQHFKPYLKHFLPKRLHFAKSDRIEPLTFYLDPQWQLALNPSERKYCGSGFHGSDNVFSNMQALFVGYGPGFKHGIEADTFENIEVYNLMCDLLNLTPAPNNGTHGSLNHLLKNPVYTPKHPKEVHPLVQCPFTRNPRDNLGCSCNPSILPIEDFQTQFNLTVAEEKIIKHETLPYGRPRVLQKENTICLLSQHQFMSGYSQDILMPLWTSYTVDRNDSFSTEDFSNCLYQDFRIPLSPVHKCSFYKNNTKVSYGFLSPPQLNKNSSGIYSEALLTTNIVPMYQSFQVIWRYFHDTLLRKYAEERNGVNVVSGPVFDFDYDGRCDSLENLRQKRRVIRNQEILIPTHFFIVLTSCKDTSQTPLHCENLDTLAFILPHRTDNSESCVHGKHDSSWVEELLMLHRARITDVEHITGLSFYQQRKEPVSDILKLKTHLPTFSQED
Test: ENPP1 activity assay using p-Nitrophenyl-5′-AMP as a substrate
Format: biochemical
Experimental: AMP-pNP can be used as substrate of ENPP-1. Its hydrolysis products were nucleotide-5′-monophosphate and p-nitrophcnol, which is also a chromogenic product. The amount of p-nitrophenol product formed is measured using its absorbance at 405 nm, which is directly proportional to enzyme activity. […] The percent inhibition at each compound is calculated as follows: % inhibition=(ODMAX−ODCOMPOUND)/(ODMAX−ODMIN)*100. […]
I'd appreciate it if you could supply pIC50 values for the items below.
The value called pIC50 is obtained by taking minus log10 of the concentration in mol/L.

Reported pIC50 ( `COc1ccc2c(ncc3c2n(Cc2c(F)cc(S(N)(=O)=O)cc2F)c(=O)n3CCO)n1` ) = 9.49

The measured pIC50 associated with `COc1ccc2c(ncc3nc(C4CC4)n(Cc4ccc(S(N)(=O)=O)cn4)c32)n1` reads 9.92

Data point: `COc1ccc2ncc3ncn(Cc4ccc(S(N)(=O)=O)cc4)c3c2c1` ; pIC50 = 7.44

The compound listed as `COc1ccc2c(ncc3nc(CC(N)=O)n(Cc4ccc(S(N)(=O)=O)c(F)c4)c32)n1` has a reported pIC50 of 8.08

----------
Target: ENPP-1, HEK293 cells (Homo sapiens, UniProt P22413)
Construct: ENPP-1 were mainly expressed on the surface of cell membrane; endogenous in cells
Sequence (P22413 whole entry): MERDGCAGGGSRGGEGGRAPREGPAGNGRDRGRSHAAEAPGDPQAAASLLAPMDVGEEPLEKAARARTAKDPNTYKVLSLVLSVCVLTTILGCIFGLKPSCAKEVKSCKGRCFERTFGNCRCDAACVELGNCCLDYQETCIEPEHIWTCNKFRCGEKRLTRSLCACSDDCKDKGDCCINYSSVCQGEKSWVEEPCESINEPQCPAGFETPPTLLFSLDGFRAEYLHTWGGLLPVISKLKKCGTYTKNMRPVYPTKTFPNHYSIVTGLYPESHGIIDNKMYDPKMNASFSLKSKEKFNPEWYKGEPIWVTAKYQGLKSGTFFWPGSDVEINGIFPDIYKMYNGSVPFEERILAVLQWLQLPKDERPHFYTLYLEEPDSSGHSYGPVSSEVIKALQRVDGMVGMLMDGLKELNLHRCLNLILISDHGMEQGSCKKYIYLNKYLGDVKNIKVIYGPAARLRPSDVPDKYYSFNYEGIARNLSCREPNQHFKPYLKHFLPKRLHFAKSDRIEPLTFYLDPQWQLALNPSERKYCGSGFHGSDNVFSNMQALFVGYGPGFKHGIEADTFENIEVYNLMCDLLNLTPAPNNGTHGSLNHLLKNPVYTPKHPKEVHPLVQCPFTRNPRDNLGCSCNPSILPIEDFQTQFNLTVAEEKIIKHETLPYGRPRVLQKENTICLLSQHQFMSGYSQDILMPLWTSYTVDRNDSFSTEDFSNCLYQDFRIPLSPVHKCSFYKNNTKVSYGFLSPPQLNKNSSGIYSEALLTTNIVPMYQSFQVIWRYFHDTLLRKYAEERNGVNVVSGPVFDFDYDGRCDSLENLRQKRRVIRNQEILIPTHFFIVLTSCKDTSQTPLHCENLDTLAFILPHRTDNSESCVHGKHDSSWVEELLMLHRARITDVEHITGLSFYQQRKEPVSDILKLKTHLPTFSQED
Assay: Cellular enzymatic assay of ENPP-1 inhibitors using TMP-pNP as substrate, HEK 293 cells
Experimental: ENPP-1 were mainly expressed on the surface of cell membrane where it hydrolytes 2′3′-cGAMP to generate 5′-GMP and 5′-AMP. ENPP-1 also has the ability to hydrolyzes artificial phosphoric acid ester TMP-pNP to nucleotide-5′-monophosphate and p-nitrophcnol there, which is a chromogenic product. […] The IC50 values for percent inhibition versus compound concentration are determined by fitting the inhibition curves using a four-parameter variable slope model in GraphPad Prism® 8.
Assign labels as follows, please: label 1 for IC50 below 2 µM; label 0 for IC50 equal to or exceeding 2 µM.

In plain terms, does `COc1ccc2c(c1)ncc1[nH]c(=O)n(Cc3ccc(S(N)(=O)=O)cc3)c12` come in under 2 µM for IC50? label 0

Item COc1cc2ncc3ncn([C@H](C)c4ccc(S(N)(=O)=O)cc4)c3c2cc1OC [Compound 11a] : IC50 beneath 2 µM, strictly? label 0

Field: below-cutoff. Rule: recorded IC50 strictly less than 2 µM. Subject: `COc1ccc2c(ncc3ncn(Cc4ccc(S(N)(=O)=O)cc4)c32)n1` label 1

Problem: For the molecule `COc1cc2ncc3ncn(Cc4ccc(S(N)(=O)=O)cn4)c3c2cc1OC` , is IC50 under 2 µM? label 0

Hi there! Is IC50 for `COc1ccc2c(ncc3ncn(Cc4ccc(NS(N)(=O)=O)cc4)c32)n1` below 2 µM, do you know? label 0

Does the reported IC50 of `COc1ccc2c(ncc3nc(C(F)(F)F)n(Cc4ccc(S(N)(=O)=O)cc4)c32)n1` stay below 2 µM? label 0

Say whether its IC50 is strictly beneath 2 µM. Entry: `COc1ccc2c(ncc3ncn(Cc4ccc(S(N)(=O)=O)cn4)c32)n1` label 1

In the record for `COc1ccc2c(ncc3ncn(Cc4ccc(S(N)(=O)=O)nc4)c32)n1` , is IC50 less than 2 µM? label 1
